# Tested on: AREc32 reporter cell line (antioxidant response element of rat Gsta2, Nrf2 target gene)
# assay comment: AREc32 luciferase reporter activation
# Type: cell-based, human
# test settings: human, Arec32, 19 h; concentration increasing luminescence signal 2-fold above vehicle; nineteen hours; read-out: AREc32 EC2X (nM) (Mean ± SD)
# Method: […] The effect of several compounds disclosed herein on luciferase reporter activation was assessed in the AREc32 reporter cell line (see Table 10 and Table 11). […] After incubation for 5 min at room temperature, the luminescence signal was measured on a PHERAstar plate reader. The EC2X value was determined using Excel and GraphPad Prism software. […]
measured property: log10 of EC (2-fold) (log10 of the value in nM)
// units: nM (pre-log); metric: EC (2-fold); scale: log10

Illustrative cases are given below, each with its answer.
CC1(C)CC[C@]2(c3nc(CCN)no3)CC[C@]3(C)[C@H](C(=O)C=C4[C@@]5(C)C=C(C#N)C(=O)C(C)(C)[C@@H]5CC[C@]43C)[C@@H]2C1 | 0.55
C[C@@H]1C(=O)C(C#N)=C[C@]2(C)C3=CC(=O)[C@@H]4[C@@H]5CC(C)(C)CC[C@]5(c5noc(CF)n5)CC[C@@]4(C)[C@]3(C)CC[C@@H]12 | 0.27
C[C@@H]1C(=O)C(C#N)=C[C@]2(C)C3=CC(=O)[C@@H]4[C@@H]5CC(C)(C)CC[C@]5(c5nnc(CF)o5)CC[C@@]4(C)[C@]3(C)CC[C@@H]12 | 0.60
CC1(C)CC[C@]2(c3nnc(C(F)(F)F)o3)CC[C@]3(C)[C@H](C(=O)C=C4[C@@]5(C)C=C(C#N)C(=O)C(C)(C)[C@@H]5CC[C@]43C)[C@@H]2C1 | 1.46
CC1(C)CC[C@]2(c3nc(CC4CC4)no3)CC[C@]3(C)[C@H](C(=O)C=C4[C@@]5(C)C=C(C#N)C(=O)C(C)(C)[C@@H]5CC[C@]43C)[C@@H]2C1 | 1.81
Cc1nnc([C@]23CCC(C)(C)C[C@H]2[C@H]2C(=O)C=C4[C@@]5(C)C=C(C#N)C(=O)[C@@H](C)[C@@H]5CC[C@@]4(C)[C@]2(C)CC3)o1 [CC4, reference compound] | 0.91

Okay, next one:
Input: Look up log10 of EC (2-fold) for this molecule: `CCc1nc([C@]23CCC(C)(C)C[C@H]2[C@H]2C(=O)C=C4[C@@]5(C)C=C(C#N)C(=O)C(C)(C)[C@@H]5CC[C@@]4(C)[C@]2(C)CC3)no1`
Output: 1.51

* * *

# maps each entry to its GSH EC50 Relative to RTA 402 (fold) (Mean ± SD)
# System: AML-12 hepatocyte cell line
# assay comment: Glutathione assay (total glutathione, GSH-Glo)
# Format: cell-based, mouse
# test settings: benchmark RTA 402
Field format: number, assumed fold, no unit text.

Input: Field: GSH EC50 Relative to RTA 402 (fold) (Mean ± SD) (AML-12 hepatocyte cell line). Entry: `CC1(C)CC[C@]2(c3nc(CCO)no3)CC[C@]3(C)[C@H](C(=O)C=C4[C@@]5(C)C=C(C#N)C(=O)C(C)(C)[C@@H]5CC[C@]43C)[C@@H]2C1`
Output: 0.55

Input: Missing value: GSH EC50 Relative to RTA 402 (fold) (Mean ± SD), AML-12 hepatocyte cell line, entry `Cn1nnc([C@]23CCC(C)(C)C[C@H]2[C@H]2C(=O)C=C4[C@@]5(C)C=C(C#N)C(=O)C(C)(C)[C@@H]5CC[C@@]4(C)[C@]2(C)CC3)n1` . Fill in?
Output: 0.95

Input: Enter reported GSH EC50 Relative to RTA 402 (fold) (Mean ± SD) observed with AML-12 hepatocyte cell line for `CC1(C)CC[C@]2(c3nnn(CCO)n3)CC[C@]3(C)[C@H](C(=O)C=C4[C@@]5(C)C=C(C#N)C(=O)C(C)(C)[C@@H]5CC[C@]43C)[C@@H]2C1`
Output: 0.80

Input: Hi! What's the reported GSH EC50 Relative to RTA 402 (fold) (Mean ± SD) for Cc1noc([C@]23CCC(C)(C)C[C@H]2[C@H]2C(=O)C=C4[C@@]5(C)C=C(C#N)C(=O)C(C)(C)[C@@H]5CC[C@@]4(C)[C@]2(C)CC3)n1 [CC2, reference compound] on AML-12 hepatocyte cell line?
Output: 0.80

Input: Checklist item: GSH EC50 Relative to RTA 402 (fold) (Mean ± SD) tested on AML-12 hepatocyte cell line, entry `C[C@@H]1C(=O)C(C#N)=C[C@]2(C)C3=CC(=O)[C@@H]4[C@@H]5CC(C)(C)CC[C@]5(c5nc(CF)no5)CC[C@@]4(C)[C@]3(C)CC[C@@H]12` , value?
Output: 0.18

Input: AML-12 hepatocyte cell line / GSH EC50 Relative to RTA 402 (fold) (Mean ± SD) / `CC1(C)CC[C@]2(c3nnc(CF)o3)CC[C@]3(C)[C@H](C(=O)C=C4[C@@]5(C)C=C(C#N)C(=O)C(C)(C)[C@@H]5CC[C@]43C)[C@@H]2C1` : value?
Output: 0.32
